Values compiled from ChEMBL document CHEMBL3797105.

Consider the following compounds and their measured IC50 readings.
# System: A549
# PROTOCOL_DESCRIPTION: Cytotoxicity against human A549 cells after 48 hrs by sulforhodamine B assay
# Assay type: functional, cell-based
# ASSAY_CONDITIONS: A549, 48 h

Solved entries:
* CC(=O)OC[C@H]1O[C@@H](n2cc(Cn3cc(/C=C/C(=O)c4cccnc4)c4ccccc43)nn2)[C@H](OC(C)=O)[C@@H](OC(C)=O)[C@@H]1OC(C)=O | 39.8 µM
* COc1ccc2c(c1)c(/C=C1/C(=O)Nc3ccc(F)cc31)cn2Cc1cn([C@@H]2O[C@H](COC(C)=O)[C@@H](OC(C)=O)[C@H](OC(C)=O)[C@H]2OC(C)=O)nn1 | > 200 µM

Okay, next one:
Value lookup for IC50; key = CC(=O)OC[C@H]1O[C@@H](OC(C)=O)[C@H](OC(C)=O)[C@@H](OC(C)=O)[C@@H]1OC(C)=O
> 200 µM
